Tested on: A549/ATCC NSCLC
test_summary: NCI-60 one-dose screen, 48 h
setup_conditions: 10 µM unless noted
Description: Growth inhibition of the A549/ATCC human Non-Small Cell Lung tumor cell line is measured as a screen for anti-cancer activity. Cells are grown in 96 well plates and exposed to the test compound for 48 hours. Compounds are tested at a single concentration, which is 10^-5 M for most compounds. The reported endpoint is percent growth (GI% or GIPRCNT), where numbers from 0 - 100% represent growth inhibition, and numbers from -100% - 0 represent cell death. […]
Compounds without any hit were thinned out: in the full panel of roughly 83,000, 20% have a hit. Activity calls are given as the source filed them. Rule for the calls: active = growth percent below 10; inactive = the rest.
Your response should consist of one outcome taken from active, inactive

Example entries begin here.
compound	cat
CC1(C)CC(=O)c2c(ccc(C(=O)C[C@@H](N)CO)c2N)O1	inactive
CC1(C)CC[C@]2(C(=O)O)CC[C@]3(C)[C@H](CC[C@@H]4[C@@]5(C)CCC(=O)C(C)(C)[C@@H]5CC[C@]43C)[C@H]2[C@H]1OC(=O)C(F)(F)F	active
CC1(C)CC[C@]23CC[C@]4(C)[C@H](CC[C@@H]5[C@@]6(C)C/C(=C/c7cccnc7)C(=O)C(C)(C)[C@@H]6CC[C@]54C)[C@H]2[C@H]1OC3=O	inactive
C=C(C)[C@@H]1CC[C@]2(C(=O)NCCNCCNCCN)CC[C@]3(C)[C@H](CC[C@@H]4[C@@]5(C)CCC(=O)C(C)(C)[C@@H]5CC[C@]43C)[C@@H]12	active
Cc1cc(C)c(S(=O)(=O)/N=c2/n(-c3ccccc3)nc3n2CCN3C2=NCCN2)c(C)c1	inactive
O=C(N[C@@H]1CCCc2ccccc21)[C@H](CCC(=O)N1CCN(C2CCCCC2)CC1)N1C(=O)[C@@H](N2C(=O)OC[C@@H]2c2ccccc2)[C@H]1/C=C/c1ccccc1	inactive
CCOC(CNC(=O)c1cccc([N+](=O)[O-])c1)OCC	inactive
COc1cc(Cl)cc(-c2nn(C(=O)NS(=O)(=O)c3ccccc3)cc2-c2ccncc2)c1	inactive

Ask: Recorded test call requested for Nc1nnc(CSc2nnc3n(Cc4ccccc4)c(=O)c4c5c(sc4n23)CCCC5)s1
Reply: inactive
